Data provenance is ChEMBL document CHEMBL4689842.

Each item that follows carries a reported Population Fragmented Nuclei (%).
- Test system: Fibroblast
- protocol: Multiplex assay against human fibroblast
- Format: toxicity, cell-based
- condition-context: 48 h, 1 µM, compound concentration 1 uM, replicate 2
Write the value in % as a bare number.

{"compound": "CC[C@H](C)C(=O)O[C@H]1C[C@@H](C)C=C2C=C[C@H](C)[C@H](CC[C@@H]3C[C@@H](O)CC(=O)O3)[C@H]21", "experimental-readout": "Population Fragmented Nuclei (%)", "measurement-unit": "%", "recorded-number": 17}

Form entry - test system: Fibroblast; read-out: Population Fragmented Nuclei (%); compound: O=C1NCN(c2ccccc2)C12CCN(CCCOc1ccc(F)cc1)CC2 [SPIRAMIDE]
15

Form entry - test system: Fibroblast; read-out: Population Fragmented Nuclei (%); compound: CN1CCC[C@@H]1CCO[C@](C)(c1ccccc1)c1ccc(Cl)cc1.O=C(O)/C=C/C(=O)O [CLEMASTINE FUMARATE]
48

Form entry - test system: Fibroblast; read-out: Population Fragmented Nuclei (%); compound: `C=CC(=O)Nc1ccc2ncnc(Nc3ccc(OCc4cccc(F)c4)c(Cl)c3)c2c1.Cc1ccc(S(=O)(=O)O)cc1`
31

Form entry - test system: Fibroblast; read-out: Population Fragmented Nuclei (%); compound: C[C@@H](NCCCc1cccc(C(F)(F)F)c1)c1cccc2ccccc12.Cl [CINACALCET HYDROCHLORIDE]
50

Form entry - test system: Fibroblast; read-out: Population Fragmented Nuclei (%); compound: `Cc1nc(-c2ccc(-c3ccc(C(=O)N4CCc5cc6c(cc54)C4(CCN(C)CC4)CO6)cc3)c(C)c2)no1`
48

Form entry - test system: Fibroblast; read-out: Population Fragmented Nuclei (%); compound: `CN1CCN(c2ccc(OC(F)(F)F)c(Nc3ncc4c(n3)-c3c(c(C(N)=O)nn3CCO)CC4)c2)CC1`
25
